Assay: Cytotoxicity against human SUM159 cells assessed as reduction in cell viability after 24 hrs in presence of 10% fetal calf serum by MTS assay
Assay type: functional, cell-based
Conditions: SUM-159-PT
pIC50: −log10 of the molar value.
experimentalReadout: pIC50

{"structureSmilesString": "C/C(=C\\CN1CCC(Cc2ccccc2)CC1)c1ccc2ccccc2c1", "experimentalReadout": "pIC50", "recordedNumber": 4.23}

====

Assay: Displacement of [3H]-DTG from sigma 2 receptor in rat liver after 120 mins by scintillation counting analysis
pKi: −log10 of the molar value.
The label depends only on pKi: yes (1) if it is at least 7, no (0) if it is smaller.

{"compound": "CC(O)(CCN1CCC(Cc2ccccc2)CC1)c1ccccc1 (stereo in doubt; 2b)", "labelClass": "no (0)"}
{"compound": "CC(CCN1CCC(Cc2ccccc2)CC1)c1ccc2cc(O)ccc2c1 (single isomer, unassigned; (+))", "labelClass": "no (0)"}
{"compound": "C/C(=C\\CN1CCC(Cc2ccccc2)CC1)c1ccc2ccccc2c1", "labelClass": "yes (1)"}
{"compound": "CC(CCN1CCC(Cc2ccccc2)CC1)c1ccc2ccccc2c1 (single isomer, unassigned; (+))", "labelClass": "yes (1)"}
{"compound": "CC(O)(CCN1CCC(Cc2ccccc2)CC1)c1ccc2cc(O)ccc2c1 (single isomer, unassigned; (-))", "labelClass": "no (0)"}
{"compound": "CC(CCN1CCC(Cc2ccccc2)CC1)c1ccc2cc(O)ccc2c1 (stereo in doubt; 12)", "labelClass": "no (0)"}
{"compound": "CC(CCN1CCC(Cc2ccccc2)CC1)c1ccccc1 (stereo in doubt; 6b)", "labelClass": "yes (1)"}
